The measurements presented in this section are drawn from patent US6924366B2.

Can you tell me Relative rate, native enzyme, this work for the items I'm about to list?
target: native hexose oxidase from Chondrus crispus (Chondrus crispus); construct: the native form isolated from Chondrus crispus; from tissue; host or cells: Chondrus crispus (red alga) fronds; experiment: Substrate specificity of native hexose oxidase (o-dianisidine/peroxidase assay); assay type: biochemical; conditions: sugar at a final concentration of 0.1 M
Sequence (P93762 4-337 limits assumed): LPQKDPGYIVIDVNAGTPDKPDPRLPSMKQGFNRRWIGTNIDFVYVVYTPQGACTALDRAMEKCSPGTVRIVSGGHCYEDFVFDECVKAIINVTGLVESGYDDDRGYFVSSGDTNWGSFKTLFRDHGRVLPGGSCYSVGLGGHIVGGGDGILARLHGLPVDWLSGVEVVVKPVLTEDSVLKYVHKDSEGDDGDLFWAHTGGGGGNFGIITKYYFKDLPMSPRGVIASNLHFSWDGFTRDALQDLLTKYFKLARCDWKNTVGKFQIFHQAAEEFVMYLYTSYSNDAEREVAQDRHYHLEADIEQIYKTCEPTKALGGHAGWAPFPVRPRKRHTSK
Sequence (P93762 338-546 limits assumed): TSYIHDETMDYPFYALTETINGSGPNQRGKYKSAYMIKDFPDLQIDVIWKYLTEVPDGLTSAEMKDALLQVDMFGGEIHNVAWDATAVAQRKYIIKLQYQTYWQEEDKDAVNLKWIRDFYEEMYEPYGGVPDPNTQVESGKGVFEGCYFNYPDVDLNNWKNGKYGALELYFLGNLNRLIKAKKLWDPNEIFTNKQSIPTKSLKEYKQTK

// known answers, use as guide
OC[C@H]1O[C@H](O[C@H]2[C@H](O)[C@@H](O)[C@H](O)O[C@@H]2CO)[C@H](O)[C@@H](O)[C@@H]1O: 37
O=C[C@H](O)[C@@H](O)[C@H](O[C@@H]1O[C@H](CO)[C@@H](O)[C@H](O)[C@H]1O)[C@H](O)CO: 33
OC[C@H]1O[C@@H](O[C@H]2[C@H](O)[C@@H](O)C(O)O[C@@H]2CO)[C@H](O)[C@@H](O)[C@H]1O (some centres unmarked): 25
O=C[C@H](O)[C@@H](O)[C@@H](O)[C@H](O)CO: 75

Attention now turns to another entry.
Relative rate, native enzyme, this work for `O=C[C@H](O)[C@@H](O)[C@H](O)[C@H](O)CO` is 100
